System: HOP-62
Assay: NCI tumour cell line growth inhibition, 48 h
Active and inactive are the calls of the source. No stated cut-off is given here; in the data, active = GI50 up to about 1.1 µM and inactive = higher.
Collected GI50 values appear next to each entry.

CNS(=O)(=O)c1ccc2c(c1)/C(=C1/Nc3ccccc3C1=O)C(=O)N2
> 100 µM (inactive)

Task: // Input: N#CCCN(CCC#N)c1ccc(/C=C(/NC(=O)c2cc([N+](=O)[O-])ccc2Cl)C(=O)N=[N+]=[N-])cc1 . Output its GI50 only.
Result: > 100 µM (inactive)

Task: For [N-]=[N+]=NC1=C(C(=O)c2ccccc2)C(=O)c2cccc3cccc1c23 , write its GI50.
Result: 17.1 µM (inactive)

Task: Supply GI50 value. Item: CCN(CC)C(=O)CCNC(C)Cc1c[nH]c2ccccc12 (configuration not stated)
Result: > 100 µM (inactive)

Task: Indicate its recorded GI50; the molecule in question is COc1cc(/C=C2/C[C@H]3[C@@H]4CC=C5C[C@@H](O)CC[C@]5(C)[C@H]4CC[C@]3(C)NC2=O)cc(OC)c1OC
Result: 23.1 µM (inactive)

* * *

Test system: NCI-H23
Experiment: NCI tumour cell line growth inhibition, 48 h
The source made the active and inactive calls. Cut-off read from the data, not from the text of the source: active = GI50 up to about 1.1 µM and inactive = higher.
GI50 values for the compounds below.

Solved entries:
Cc1nc2ccccc2n1Cc1ccc(NC(=S)NC2CCCCC2)cc1
17.5 µM (inactive)
O=C1N(Cc2ccccc2)C2CSCC2N1Cc1ccccc1 (stereo unspecified)
27.8 µM (inactive)
OC(C#Cc1ccccc1)(c1ccccc1)c1ccccc1
53.5 µM (inactive)
Nc1ccccc1C(=O)C(Br)C(Br)c1ccc2c(c1)OCO2 (stereo unspecified)
19.9 µM (inactive)
Cc1ccc(NC(=O)C(=O)C(C(=O)/C=C/c2ccccc2)C2OC(=O)c3ccccc32)c(C)c1 (stereo unspecified)
> 100 µM (inactive)

Task: Please report the measured GI50 for C(=N\c1cc2cc(Sc3ccccc3)ccc2[nH]1)/c1ccccc1 tested on NCI-H23.
Result: > 12.5 µM (inactive)

* * *

Test system: TK-10
Test: NCI tumour cell line growth inhibition, 48 h
Calls of active or inactive are those of the source. Cut-off read from the data, not from the text of the source: active = GI50 up to about 1.1 µM and inactive = higher.
Choose one outcome from this list and give only that: yes (1) for active, no (0) for inactive

N=C1SCCS1
no (0)
C[C@]12C=CC(=O)C=C1CC[C@@H]1[C@@H]2CC[C@@]2(C)[C@H]1CC[C@]2(O)C(N)=O
no (0)
CCC(=O)Oc1c2ccsc2c(OC(=O)CC)c2ccsc12
no (0)
O=C(Nc1ccc(Cl)cc1)c1cc(S(=O)(=O)NC2=Nc3ccc(Cl)cc3C(c3ccccc3)N2)c(SSc2cc(Cl)c(C(=O)Nc3ccc(Cl)cc3)cc2S(=O)(=O)NC2=Nc3ccc(Cl)cc3C(c3ccccc3)N2)cc1Cl (centres undefined)
no (0)
CC1=C2C(=O)C(C)(C)C=C2C(=O)[C@](C)(O)C12CC2 [DEHYDROILLUDIN M]
yes (1)

Task: Lab log entry: NC(=O)C(N)Cc1ccc(O)cn1 (centres undefined) — outcome as called in the assay?
Result: no (0)

Task: # fetch the recorded call for O=C(NCCCn1ccnc1[N+](=O)[O-])C(=O)NCCCn1ccnc1[N+](=O)[O-] here
Result: no (0)

Task: Per the records of this test, what outcome belongs to CCOC(=O)c1csc(NC(=O)CN2CCN(C)CC2)n1 ?
Result: no (0)

Task: What outcome does the record of this test show for NNC(=O)c1c(Cl)c(Cl)c(Cl)c(Cl)c1-c1nc2ccccc2[nH]1 ?
Result: no (0)

* * *

System: NCI-H23
Test: NCI tumour cell line growth inhibition, 48 h
Active and inactive are the calls of the source. Cut-off read from the data, not from the text of the source: active = GI50 up to about 1.1 µM and inactive = higher.
Use one of these outcomes when replying: 1 (active), -1 (inactive)

N#CCCN(CCC#N)c1ccc(/C=C(/NC(=O)c2cc([N+](=O)[O-])ccc2Cl)C(=O)N=[N+]=[N-])cc1
-1
CC(NC(=O)OC(C)(C)C)C(=O)C(N)=O (stereo not drawn)
-1

Now consider the entry below.
Task: For this molecule, state the assay outcome: CCOC(=O)Oc1cc2c(c(OC)c1OC)-c1ccc(SC)c(=O)cc1C(NC(=O)C(F)(F)F)CC2 (stereo not drawn)
Result: 1

* * *

Tested on: ACHN
Assay: NCI tumour cell line growth inhibition, 48 h
The source made the active and inactive calls. Cut-off read from the data, not from the text of the source: active = GI50 up to about 1.1 µM and inactive = higher.
RESULT_TYPE: GI50

Some solved cases for reference:
O=C1N(Cc2ccccc2)C2CSCC2N1Cc1ccccc1 (stereo unspecified)
49.2 µM (inactive)
Nc1ncnc2c1ncn2C1OC(CO)C(O)C1O (stereo unspecified)
40.6 µM (inactive)

Shifting focus to the compound that follows.
Task: Fill: GI50 (ACHN) for this compound NC(CSC(c1ccccc1)(c1ccccc1)c1ccccc1)C(=O)O (stereo unspecified)
Result: 7.89 µM (inactive)

* * *

Listing of entries alongside the reported GI50.
System: UACC-62
Assay: NCI tumour cell line growth inhibition, 48 h
Active and inactive are the calls of the source. Cut-off read from the data, not from the text of the source: active = GI50 up to about 1.1 µM and inactive = higher.

NC(CCC(=O)NC(CSC(=O)N(O)c1ccc(Br)cc1)C(=O)NCC(=O)O)C(=O)O (stereo not drawn)
> 100 µM (inactive)
COc1cc2c(c3oc(-c4ccc5c(c4)OCO5)c(O)c(=O)c13)CCC(C)(C)O2
> 100 µM (inactive)
O=C(CCSC1=NCCCN1)c1ccc(F)cc1
17.2 µM (inactive)
CC(=O)OC1COC(N2C(=O)/C(=N\NC(N)=S)c3cc(Br)ccc32)C(OC(C)=O)C1OC(C)=O (stereo not drawn)
35.6 µM (inactive)
CCCCC/C=C1\CC(CO)(COC(=O)CC(C(C)C)C(C)C)OC1=O (stereo not drawn)
19.4 µM (inactive)
O=C1[C@H]2ON(c3ccccc3)C(c3ccc([N+](=O)[O-])cc3)[C@H]2C(=O)N1c1ccc(Cc2ccc(N3C(=O)[C@@H]4ON(c5ccccc5)C(c5ccc([N+](=O)[O-])cc5)[C@@H]4C3=O)cc2)cc1 (stereo partly drawn)
67.3 µM (inactive)

Task: Consider the molecule c1cc2c3c(c1)c1cc4c(cc1c[n+]3CC2)OCO4 [ANHYDROLYCORINIUM CHLORIDE] tested on UACC-62; state its GI50.
Result: 5.85 µM (inactive)

Task: Supply GI50 measured with UACC-62 for Cc1ccc(S(=O)(=O)N/N=C2/C3CC4CCC2C4C3)cc1 (stereo not drawn) .
Result: > 100 µM (inactive)

* * *

Form field: GI50 (one value per entry).
System: COLO 205
Experiment: NCI tumour cell line growth inhibition, 48 h
The source made the active and inactive calls. Rule as the data show it: active = GI50 up to about 1.1 µM and inactive = higher.

N#Cc1c(O)c(/N=N/c2ccc(Cl)cc2)c(=O)n2c1[nH]c1ccccc12
52.2 µM (inactive)
O=C1/C(=C/c2cccc([N+](=O)[O-])c2)COc2ccc(Br)cc21
> 100 µM (inactive)

Task: Enter measured GI50, system COLO 205, for the compound shown: NC(=O)N/N=C\c1ccccc1OCc1cccc(COc2ccccc2/C=N\NC(N)=O)n1
Result: > 100 µM (inactive)

Task: Quote COLO 205 GI50 for entry CCCCC/C=C1\CC(CO)(COC(=O)CC(C(C)C)C(C)C)OC1=O (stereo unspecified) .
Result: 3.04 µM (inactive)

Task: Param request: GI50 | system COLO 205 | item NNC(=O)c1c(Cl)c(Cl)c(Cl)c(Cl)c1-c1nc2ccccc2[nH]1
Result: 16.4 µM (inactive)

Task: Enter measured GI50, system COLO 205, for the compound shown: COc1ccc(OC)c(CSc2ccc(OC)c(OC)c2)c1
Result: > 100 µM (inactive)

Task: Identify measured GI50 obtained with COLO 205 for Cc1ccc(NC(=O)C(=O)C(C(=O)/C=C/c2ccccc2)C2OC(=O)c3ccccc32)c(C)c1 (stereo unspecified) .
Result: > 100 µM (inactive)

* * *

System: NCI-H460
Experiment: NCI tumour cell line growth inhibition, 48 h
The source made the active and inactive calls. Cut-off read from the data, not from the text of the source: active = GI50 up to about 1.1 µM and inactive = higher.
Assign a class; possible classes are class 1 = active, class 0 = inactive

Worked examples follow.
CN1CCC23c4ccccc4NC1C21CCN(C)C3Nc2ccccc21
class 0
COc1ccc(NC(=O)CC(=O)n2nc(-c3ccccc3)c(/N=N/c3ccc(C)cc3)c2-c2ccccc2)cc1
class 0
COc1cc(O)c(C(C)=O)c(O)c1
class 0

Task: What did this assay record as the result for NC1=CN2c3ccccc3N(CC(=O)O)C2C=C1 (configuration not stated) ?
Result: class 0

Task: Called result for O=C(COc1cc(=O)oc2ccccc12)c1ccccc1
Result: class 0

Task: Recorded call for CN(C)CCN1C(=O)c2cccc3cc([N+](=O)[O-])cc(c23)C1=O [MITONAFIDE] ?
Result: class 1

Task: Please share the test call associated with Cn1c(=O)c2sc3cc4c(cc3c2c2ccccc21)sc1c(=O)n(C)c2ccccc2c14 .
Result: class 0

Task: Outcome logged for Cc1ccc(N)cc1.O=S(=O)(O)/C(=C\c1ccccc1)c1ccccc1 in this assay:
Result: class 0

Task: Could you please tell me the result logged for NC(CSC1c2ccccc2-c2ccccc21)C(=O)O (configuration not stated) in this assay?
Result: class 0

Task: Just curious, what result did CCOC(=O)/C(C[C@H]1OC(C)(C)O[C@@H]1[C@H]1COC(C)(C)O1)=N/O get here?
Result: class 0

Task: Which outcome was assigned to CC1=C/C(=N\OCC(=O)O)CC(c2ccc(C(C)C)cc2)C1 (configuration not stated) in this test?
Result: class 0

Task: Fill in: this test's call for CCCCOc1ccc(S(=O)(=O)/N=C(\NN)Nc2ccc(Cl)cc2)cc1 is ___
Result: class 0

Task: Assay result, entry CCC1C(NC(=O)OC)C(=O)N1[C@@H](C)c1ccccc1 (some centres not stated) — outcome?
Result: class 0
